Test system: German cockroaches
procedureSummary: Spraying compositions on German cockroaches, knock-down and mortality (dead incl. moribund) observed
Assay type: in vivo
testSettings: 5 minutes after spraying; knocked-down and dead insects; concentrations w/w in water
endpointLabel: Observed Efficacy (%)
Hi! Could you send only the number? It should be in %, unit omitted.

Worked examples follow.
CCCCOC(=O)C(C)O (stereo not shown) [Butyl Lactate (5%), Butyl lactate] = 13
CCCCCCCC/C=C\CCCCCCCC(=O)O = 0
[Cl-].[Na+] = 0

Could you share which Observed Efficacy value was measured for CC(C)=CCC/C(C)=C/CO [Geraniol (10%), Geraniol] ?
27

====

Test system: German cockroaches
procedureSummary: Spraying compositions on German cockroaches, knock-down and mortality (dead incl. moribund) observed
Assay type: in vivo
testSettings: 5 minutes after spraying; knocked-down and dead insects; concentrations w/w in water
endpointLabel: Observed Efficacy

# count of solved cases: 6
CCCCCCCC/C=C\CCCCCCCC(=O)OCC(O)CO (stereo not drawn) [Glycerol Monooleate (1.25%), Glycerol monooleate] = 0%
CC(C)O [Isopropyl alcohol (5%), Isopropyl alcohol] = 0%
CCCCOC(=O)C(C)O (stereo not drawn) [Butyl Lactate (20%), Butyl lactate] = 13%
CC(C)=CCC/C(C)=C/CO [Geraniol (20%), Geraniol] = 5%
CC(C)=CCC/C(C)=C/CO [Geraniol (2.5%), Geraniol] = 20%
CCCCOC(=O)C(C)O (stereo not drawn) [Butyl Lactate (2.5%), Butyl lactate] = 0%

Tell me the measured Observed Efficacy of CC(C)=CCC/C(C)=C/CO [Geraniol (5%), Geraniol] , please.
7%

Same question for CCCCOC(=O)C(C)O (stereo not drawn) [Butyl Lactate (10%), Butyl lactate] please.
7%

Quick one: CC(C)O [Isopropyl alcohol (10%), Isopropyl alcohol]
0%
